target: receptor binding domain (RBD) of the wildtype (WT) SARS-CoV-2 spike protein (SARS-CoV-2, wildtype (sequence as in …))

{"columns": ["BINDER", "binding result"],
 "data": [
  ["hRBD11 (antibody, V domains shown) VH: QVQLQESGPGLVKPSQTLSLTCTVSGGSISSGGYYWSWIRQHPGKGLEWIGYIFYSGSTYYNPSLKSRVIISVDTSKNQFSLKLSSVTAADTAAYYCARVNRVYGSGSYSLDPWGQGTLVTVSS VL: QSALTQPASVSGSPGQSITISCTGTSRDVGDYDYVSWYQQHPGKAPKLMIYEGSERPSGVSNRFSGSKSGNTASLTISGLQAEDEADYYCCSYTGSSTSFLFGTGTKVTVL", "binds"],
  ["mRBD18 (antibody, V domains shown) VH: QIQLVQSGPELKKPGETVKISCKASGYTFTDYPMHWVQQAPGKGFKWMGMIYTDTGEPTYAEEFKGRFAFSLETSASTAYLQINNLKNEDTATYFCVRWAGYFDYWGQGTTLTVSS VL: DIVLTQSPASLAVSLGQRATISCRASESVDSYGNSFMDWYQQKPGQPPKLLIYRASNLESGIPARFSGSGSRTDFTLIINPVEADDVATYYCQQSNEHPLTFGAGTKLELK", "binds"]
]}
